Target or system human LTA4 hydrolase (Homo sapiens, UniProt P09960); metric IC50; compiled from varied reports.
endpoint-name: IC50 (nM)

// below: answered compounds
CN(CC(N)=O)Cc1ccc2cc(Oc3ccc(-c4ccn[nH]4)cn3)ccc2n1 = 1.3
c1cc(-c2ccc(Oc3ccc4[nH]c(CN5CCCC5)nc4c3)cc2)[nH]n1 = 0.12

a. CCOCC1CCN(Cc2nc3cc(Oc4ccc(-c5ccn[nH]5)cc4)ccc3[nH]2)CC1
b. Cc1nc(COc2ccc(Oc3ccc(-c4ccn[nH]4)cc3)cc2)co1
c. c1ccc2[nH]c(CCOc3ccc(Oc4ccc(-c5ccn[nH]5)cc4)cc3)nc2c1
d. c1ccc2c(c1)OCC(c1ccc(CN3CCCCCC3)cc1)O2 (stereo not drawn)
e. CC(=O)N1CCN(Cc2ccc3cc(Oc4ccc(-c5cc[nH]n5)cn4)ccc3n2)CC1
Qu. Provide the items ranked by increasing IC50. Answer by listing the labels in the requested order.
Ans. a, e, d, c, b
